# Experiment: chemical genetic growth profiling, strain panel (AID 1159580);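 further: tested at 20 µM; growth read once vehicle control cultures reached saturation at 30 °C; lower values mean less growth of the strain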
# Test Context: S. cerevisiae deletion strains, growth OD, locus YLR342W, strain FKS1 (second series), active compounds read low
About 2,000 (36%) of roughly 5,500 compounds were called active. Inconclusive results (about 18%) are left out. Some of the results follow.
# label = rule met if normalized growth < 1 else rule not met

COc1cc2occc2c2oc(=O)ccc12 :: rule met
CC1(C)C=CC(=O)[C@@]2(C)C1CC(=O)[C@]1(C)C2CC[C@@]2(C)[C@H](c3ccoc3)OC(=O)C3OC321 (some centres undefined) :: rule met
NC(=NCCC[C@H](N)C(=O)O)N[N+](=O)[O-] :: rule not met
NC(N)=NC(=O)c1nc(Cl)c(N)nc1N :: rule met
COc1ccc2ccc(=O)oc2c1 :: rule not met

Dear reviewer, please state whether Cc1cc(C2CCCCC2)n(O)c(=O)c1 has normalized growth strictly beneath 1.
rule met

// next record CN[C@@H]1C(O)[C@@H](O[C@@H]2[C@@H](O)[C@H](O[C@H]3OC(CN)=CC[C@H]3N)[C@@H](N)C[C@H]2N)OC[C@]1(C)O (some centres undefined)
rule not met

// next record NC(N)=NC(=O)c1nc(Cl)c(N2CCCCCC2)nc1N
rule met

// next record COc1c(C(C)C)oc2cc3oc(=O)ccc3cc12
rule met

// next record CN(C)c1nc(N)c(C(=O)N=C(N)N)nc1Cl
rule not met

// next record O=c1c(O)c(-c2ccc(O)c(O)c2)oc2cc(O)cc(O)c12
rule met

// next record O=C(OC1Cc2c(O)cc(O)cc2OC1c1cc(=O)c(O)c2c(O)c(O)cc(C3Oc4cc(O)cc(O)c4CC3O)c2c1)c1cc(O)c(O)c(O)c1 (centres undefined)
rule met

// next record O=C(Cc1cccs1)NC1C(=O)N2C(C(=O)[O-])=C(C[n+]3ccccc3)CSC12 (centres undefined)
rule met
